Sourced from ChEMBL document CHEMBL1132563

target-system: Caspase-1 (Homo sapiens) (UniProt P29466)
test-protocol: Inhibitory activity against human IL-1 beta converting enzyme from monocytic THP-1 cell line, activity expressed as the logarithm of the second order rate constant for inactivation
Format: cell-based
recorded-endpoint: Activity
Respond numerically, and do not add a unit to the figure.

The following compounds have reported results that may help.
compound: O=C(O)CC(NC(=O)Cn1c(-c2ccc(F)cc2)ncc(NC(=O)c2ccco2)c1=O)C(=O)COC(=O)c1c(Cl)cccc1Cl (centres undefined)
Activity: 4.66
--
compound: O=C(O)CC(NC(=O)Cn1c(-c2cccs2)ncc(NC(=O)OCc2ccccc2)c1=O)C(=O)COC(=O)c1c(Cl)cccc1Cl (centres undefined)
Activity: 5.43
--
compound: CC(C)[C@H](NC(=O)OCc1ccccc1)C(=O)N[C@@H](C)C(=O)N[C@@H](CC(=O)O)C(=O)COP(=O)(Oc1ccc(Cl)cc1)Oc1ccc(Cl)cc1
Activity: 5.36
--
compound: CC(C)[C@H](NC(=O)OCc1ccccc1)C(=O)N[C@@H](C)C(=O)N(C)[C@@H](CC(=O)O)C(=O)COc1cc(C(F)(F)F)nn1-c1ccccc1
Activity: 2.48
--
compound: CC(C)[C@@H](C(=O)N[C@@H](C)C(=O)N[C@@H](CC(=O)O)C(=O)COc1cc(C(F)(F)F)nn1-c1ccccc1)N(C)C(=O)OCc1ccccc1
Activity: 3.93

Prompt: Which Activity value is on record for C=CCOC(=O)N[C@@H](CC(=O)O)C(=O)COC(=O)c1ccc([N+](=O)[O-])cc1 ?
Response: 1.79

Prompt: Which Activity value is on record for CC(C)[C@H](NC(=O)OCc1ccccc1)C(=O)N1CCC[C@H]1C(=O)N[C@@H](CC(=O)O)C(=O)COc1cc(C(F)(F)F)nn1-c1ccccc1 ?
Response: 5.06

Prompt: Which Activity value is on record for C=CCOC(=O)N[C@@H](CC(=O)O)C(=O)COC(=O)c1c(O)cccc1O ?
Response: 3.43

Prompt: Which Activity value is on record for C=CCOC(=O)N[C@@H](CC(=O)O)C(=O)COC(=O)c1c(F)c(F)c(F)c(F)c1F ?
Response: 2.99

Prompt: Which Activity value is on record for CC(C)[C@H](NC(=O)OCc1ccccc1)C(=O)N[C@@H](CC(=O)O)C(=O)COP(=O)(Oc1ccc(Cl)cc1)Oc1ccc(Cl)cc1 ?
Response: 4.89

Prompt: Which Activity value is on record for O=C(O)CC(NC(=O)Cn1c(-c2cccnc2)ncc(NC(=O)OCc2ccccc2)c1=O)C(=O)COc1cc(C(F)(F)F)nn1-c1ccccc1 (centres undefined) ?
Response: 5.16

Prompt: Which Activity value is on record for C[C@H](NC(=O)[C@H](Cc1ccccc1)NC(=O)OCc1ccccc1)C(=O)COc1cc(C(F)(F)F)nn1-c1ccccc1 ?
Response: 2.7

Prompt: Which Activity value is on record for O=C(O)CC(NC(=O)Cn1c(-c2ccc(F)cc2)ncc(NC(=O)OCc2ccccc2)c1=O)C(=O)COC(=O)c1c(Cl)cccc1Cl (centres undefined) ?
Response: 5.43

Prompt: Which Activity value is on record for Cc1ncc(NC(=O)OCc2ccccc2)c(=O)n1CC(=O)NC(CC(=O)O)C(=O)COc1cc(C(F)(F)F)nn1-c1ccccc1 (centres undefined) ?
Response: 4.98

###

Items are presented alongside their recorded Activity.
target-system: Caspase-1 (Homo sapiens) (UniProt P29466)
Sequence (whole entry): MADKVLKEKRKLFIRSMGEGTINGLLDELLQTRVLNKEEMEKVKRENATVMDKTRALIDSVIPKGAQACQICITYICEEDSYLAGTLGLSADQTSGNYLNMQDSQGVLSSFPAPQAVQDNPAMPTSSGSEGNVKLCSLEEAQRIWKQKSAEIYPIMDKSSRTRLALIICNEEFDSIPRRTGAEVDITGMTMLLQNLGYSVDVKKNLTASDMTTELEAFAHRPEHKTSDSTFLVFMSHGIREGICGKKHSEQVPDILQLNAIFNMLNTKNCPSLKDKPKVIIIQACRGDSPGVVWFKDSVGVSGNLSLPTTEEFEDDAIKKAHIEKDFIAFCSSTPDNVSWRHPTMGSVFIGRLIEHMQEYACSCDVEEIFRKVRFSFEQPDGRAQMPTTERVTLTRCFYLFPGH
test-protocol: Inhibitory activity against human IL-1 beta converting enzyme from monocytic THP-1 cell line, activity expressed as the logarithm of the second order rate constant for inactivation
Type: cell-based
Respond numerically, and do not add a unit to the figure.

Prompt: Which Activity value is on record for C=CCOC(=O)N[C@@H](CC(=O)O)C(=O)COC(=O)c1c(C(F)(F)F)cccc1C(F)(F)F ?
Response: 3.72

Prompt: Which Activity value is on record for O=C(O)C[C@H](NC(=O)OCc1ccccc1)C(=O)COc1cc(C(F)(F)F)nn1-c1ccccc1 ?
Response: 4.04

Prompt: Which Activity value is on record for CC(C)[C@H](NC(=O)[C@@H]1CCCN1C(=O)OCc1ccccc1)C(=O)N[C@@H](CC(=O)O)C(=O)COc1cc(C(F)(F)F)nn1-c1ccccc1 ?
Response: 2.48
